Here, compounds appear alongside pKi reported for Mu-type opioid receptor (Homo sapiens, UniProt P35372) in the literature.
Remember, pKi is on a log scale: it is -log10 of the molar concentration.

Below, 3 compounds whose answers are already recorded.
[
  {
    "compound": "NC[C@@]1(Cc2ccc(F)cc2)C[C@H]2CC[C@@H](C1)N2C(c1ccccc1Cl)c1ccccc1Cl",
    "value_measured": 5.85
  },
  {
    "compound": "CCCC(c1ccccc1)N1CC[C@H]1[C@H](N)c1cccc(Cl)c1 (some centres undefined)",
    "value_measured": 5.22
  },
  {
    "compound": "CCNC(=O)c1ccc(C(=C2CC3CCC(C2)N3CCCc2ccccc2)c2ccccc2)cc1",
    "value_measured": 8.32
  }
]

With those in mind, consider the next compound.
Q) Record "CC[C@H]1C(=O)C[C@@H]2CCN(Cc3cccs3)[C@@H]3CCC[C@H]1[C@@H]23" : what is its pKi with Mu-type opioid receptor (Homo sapiens, UniProt P35372)?
A) 6.05

* * *

Here, compounds appear alongside Ki reported for Mu-type opioid receptor (Homo sapiens) in the literature.

Below, 6 compounds whose answers are already recorded.
[
  {
    "compound": "CCCN1CC[C@H]2CC(=O)[C@H](Cc3ccccc3)[C@H]3CCC[C@@H]1[C@H]23",
    "Ki": "> 10 µM"
  },
  {
    "compound": "C[C@H]1CN(C(=O)c2ccc(-c3ccc(F)cc3)cc2)CCN1C(=O)c1ccc2cc[nH]c2c1",
    "Ki": "> 10 µM"
  },
  {
    "compound": "C[C@H]1CN(C(=O)c2ccc(-c3ccccc3F)cc2)CCN1C(=O)c1ccc2cc[nH]c2c1",
    "Ki": "> 10 µM"
  },
  {
    "compound": "O=C1C[C@@H]2CCN(CC3CCCCC3)[C@@H]3CCC[C@@H]([C@@H]23)[C@H]1Cc1ccccc1",
    "Ki": "> 10 µM"
  },
  {
    "compound": "COC(=O)C(Cc1cccc(OC)c1I)NC(=O)CNCc1cccnc1 (configuration not stated)",
    "Ki": "> 10 µM"
  },
  {
    "compound": "CS(=O)(=O)N1CCC(c2ccccc2)(c2nccn2Cc2ccccc2)CC1",
    "Ki": "> 4.65 µM"
  }
]

Q) Record "O=C(Nc1ccccc1)N1CCC(c2ccccc2)(c2nccn2C(=O)c2ccccc2)CC1" : what is its Ki with Mu-type opioid receptor (Homo sapiens)?
A) > 4.65 µM

Q) Record "COc1ccc(-c2ccc(C(=O)N3CCN(C(=O)c4ccc5cc[nH]c5c4)[C@@H](C)C3)cc2)cc1" : what is its Ki with Mu-type opioid receptor (Homo sapiens)?
A) > 10 µM

* * *

Here, molecules appear alongside Ki reported for Mu-type opioid receptor (Homo sapiens, UniProt P35372) in the literature.

[
  {
    "molecule": "COc1cccc(CC2NC(=O)CN(Cc3ccccc3)C2=O)c1C (stereo not given)",
    "tested_system": "Mu-type opioid receptor (Homo sapiens, UniProt P35372)",
    "value_measured": "> 10 µM"
  },
  {
    "molecule": "COc1cccc(CC2NC(=O)CN(CCc3ccccc3)C2=O)c1I (stereo not given)",
    "tested_system": "Mu-type opioid receptor (Homo sapiens, UniProt P35372)",
    "value_measured": "> 10 µM"
  },
  {
    "molecule": "CCCN1CC[C@H]2c3cc4ccccc4nc3[C@H](CC)[C@H]3CCC[C@@H]1[C@@H]32",
    "tested_system": "Mu-type opioid receptor (Homo sapiens, UniProt P35372)",
    "value_measured": "> 10 µM"
  },
  {
    "molecule": "COc1ccc(NC(=O)c2ccc(-c3ccc(-c4noc(C)n4)cc3C)cc2)cc1N1CCN(C)CC1",
    "tested_system": "Mu-type opioid receptor (Homo sapiens, UniProt P35372)",
    "value_measured": "> 10 µM"
  }
]

With those in mind, consider the next molecule.
Q) Dear colleague, I am looking for the recorded Ki of the following molecule: COc1cc(CC2NC(=O)CN(Cc3ccccc3)C2=O)c(I)c(OC)c1 (stereo not given)
A) > 10 µM
